Tested on: HaCaT
PROTOCOL_SUMMARY: Induction of superoxide generation in human HaCaT cells assessed as 2-OH-E+ oxidized product formation by measuring mean fluorescence intensity at 5 umol/L preincubated with 5 umol/L NQO-1 inhibitor dicoumarol for 25 mins followed by compound treatment measured after 18 hrs by flow cytometry (reference value: 407.59 +/- 68.7)
Format: functional
PROPERTY_MEASURED: Flu intensity

Below: 3 compounds and their reported Flu intensity.
SMILES_CODE | Flu intensity
O=C1c2ccccc2C(=O)c2sccc21 | 583.3
CC(=O)c1cc2c(s1)C(=O)c1ccccc1C2=O | 434.5
O=C1c2ccccc2C(=O)c2sc([N+](=O)[O-])cc21 | 1022

Summary for this compound, CC1=CC(=O)c2ccccc2C1=O : Flu intensity is 457.2

Summary for this compound, Nc1cc2c(s1)C(=O)c1ccccc1C2=O : Flu intensity is 502.3

Summary for this compound, CCc1noc(-c2cc3c(s2)C(=O)c2ccccc2C3=O)n1 : Flu intensity is 558.7

Summary for this compound, Cc1cc2c(s1)C(=O)c1ccccc1C2=O : Flu intensity is 633.5
